Reference for the values: patent US5142046A

# Tested on: Ser. marcescens, 10100
# EXPERIMENTAL DETAILS: Minimum Inhibitory Concentration (MIC), standard method of The Japan Society of Chemotherapy
# TEST CONDITIONS: Serratia marcescens, 10100, read-out: Minimum Inhibitory Concentration (MIC)
Entries and their MIC values follow.

COMPOUND: C[C@H]1COc2c(N3CCN(C)CC3)c(F)cc3c(=O)c(C(=O)O)cn1c23 [S(-)-Ofloxacin]
MEASUREMENT TARGET: Ser. marcescens, 10100
QUALIFIER SIGN: <
MIC / µg/mL: 0.1
--
COMPOUND: CCN1CCN(c2c(F)cc3c(=O)c(C(=O)O)cn4c3c2OC[C@@H]4C)CC1
MEASUREMENT TARGET: Ser. marcescens, 10100
QUALIFIER SIGN: <
MIC / µg/mL: 0.1
--
COMPOUND: C[C@@H]1COc2c(N3CCN(C)CC3)c(F)cc3c(=O)c(C(=O)O)cn1c23 [R(+)-Ofloxacin]
MEASUREMENT TARGET: Ser. marcescens, 10100
QUALIFIER SIGN: =
MIC / µg/mL: 1.56
--
COMPOUND: CC1COc2c(N3CCN(C)CC3)c(F)cc3c(=O)c(C(=O)O)cn1c23 (racemic) [Racemic Ofloxacin, reference compound]
MEASUREMENT TARGET: Ser. marcescens, 10100
QUALIFIER SIGN: =
MIC / µg/mL: 0.1
